Test system: V. harveyi MM32 AI-2 bioluminescence, 5 h
experiment: inhibitors of AI-2-induced luminescence in V. harveyi MM32, dose response, mechanism study for V. harveyi quorum sensing inhibitors, strain MM32 LuxS-null, dry powder, set 4 (AID 493116)
Calls of active or inactive are those of the source.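 Rule for the calls: active = falling signal with an AC50 no greater than ten times the top valid dose tested for that sample; inconclusive = flat response with 30 to 70% inhibition, or poor fit; inactive = activity in the rising direction, and the rest.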
Classes to choose from: True for active, False for inactive

{"structure_smiles": "O=C1C=C/C(=C/Br)O1", "label_class": "True"}

Ask: Give the logged outcome of this assay for the following molecule: Cc1ccccc1NS(=O)(=O)c1cn(C)cn1
Result: False

Ask: Give the logged outcome of this assay for the following molecule: C=Cn1c(C(=O)O)ccc1-c1ccc(OC)cc1
Result: True

Ask: Give the logged outcome of this assay for the following molecule: O=S(=O)(Nc1ccccn1)c1ccc(Oc2ccccc2)cc1
Result: True

Ask: Give the logged outcome of this assay for the following molecule: Cn1cnc(S(=O)(=O)Nc2ccccc2Cl)c1
Result: False

Ask: Give the logged outcome of this assay for the following molecule: CCc1ccc(-c2ccc(C(=O)O)n2C)cc1
Result: True

Ask: Give the logged outcome of this assay for the following molecule: Cn1cnc(S(=O)(=O)Nc2ccc(OC(F)(F)F)cc2)c1
Result: True

Ask: Give the logged outcome of this assay for the following molecule: O=S(=O)(Nc1cccnc1)c1ccc(Oc2ccccc2)cc1
Result: True

Ask: Give the logged outcome of this assay for the following molecule: C=Cn1c(C(=O)O)ccc1-c1ccc(CC)cc1
Result: True

Source of measurements: PubChem BioAssay AID493116
